- experiment: Tmax in Sprague-Dawley rat at 20 mg/kg, po measured upto 24 hrs by LC-MS/MS analysis
- Format: ADME, organism-based
- stated_conditions: in vivo
measure: Tmax

CC(=O)O[C@H]1C(=O)[C@@]2(C)[C@H]([C@H](OC(=O)c3ccccc3)[C@]3(O)C[C@H](OC(=O)[C@H](O)[C@@H](NC(=O)c4ccccc4)c4ccccc4)C(C)=C1C3(C)C)[C@]1(OC(C)=O)CO[C@@H]1C[C@@H]2O = 8 h

---

- experiment: Metabolic stability in monkey liver microsome assessed as half life
- Type: ADME, Macaca mulatta
- stated_conditions: rhesus monkey, liver microsomes
Measured half-life, listed per entry for reference.
measure: half-life (min)

COc1cc2c(cc1OC)CN(CCc1ccc(NC(=O)c3cc(OC)c(OC)cc3NC(=O)c3cnc4ccccc4c3)cc1)CC2 = 35
COc1cc(NC(=O)c2cc(=O)c3ccccc3o2)c(C(=O)Nc2ccc(C3CCN(Cc4cccc(-n5ccnc5)c4)CC3)cc2)cc1OC = 4.9

---

- tested_on: Cytochrome P450 2B6 (Homo sapiens, UniProt P20813)
- Sequence (P20813 whole entry): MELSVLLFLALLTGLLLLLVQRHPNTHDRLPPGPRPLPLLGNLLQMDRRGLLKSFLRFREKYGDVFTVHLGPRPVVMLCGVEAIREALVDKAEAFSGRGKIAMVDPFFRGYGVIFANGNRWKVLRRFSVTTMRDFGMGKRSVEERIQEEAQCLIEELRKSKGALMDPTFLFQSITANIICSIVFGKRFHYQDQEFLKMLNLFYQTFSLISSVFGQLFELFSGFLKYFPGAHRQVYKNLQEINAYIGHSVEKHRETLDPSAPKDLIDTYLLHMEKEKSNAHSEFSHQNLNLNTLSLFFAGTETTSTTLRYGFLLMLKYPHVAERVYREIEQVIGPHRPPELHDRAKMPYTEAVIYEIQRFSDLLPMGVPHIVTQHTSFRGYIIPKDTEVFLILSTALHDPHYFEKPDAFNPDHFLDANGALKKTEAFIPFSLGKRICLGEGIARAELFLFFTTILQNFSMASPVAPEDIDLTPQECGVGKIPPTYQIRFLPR
measure: IC50 (µM)

COc1cc(NC(=O)c2cc(=O)c3ccccc3o2)c(C(=O)Nc2ccc(C3CCN(Cc4cccc(-n5ccnc5)c4)CC3)cc2)cc1OC = 36

---

- experiment: Apparent permeability across basolateral to apical side in human Caco-2 cells assessed as drug recovery
- Assay type: ADME, cell-based
- stated_conditions: read-out: Drug recovery
measure: recovery (%)

COc1cc(NC(=O)c2cnc3ccccc3c2)c(C(=O)Nc2ccc(N3CCN(Cc4ccc5c(c4)OCO5)CC3)cc2)cc1OC = 75
COc1cc(NC(=O)c2cc(=O)c3ccccc3o2)c(C(=O)Nc2ccc(N3CCN(Cc4cccc(-c5cccnc5)c4)CC3)cc2)cc1OC = 86
COc1cc(NC(=O)c2cnc3ccccc3c2)c(C(=O)Nc2ccc(C3CCN(Cc4cccc(-n5ccnc5)c4)CC3)cc2)cc1OC = 72
COc1cc(NC(=O)c2cc(=O)c3ccccc3o2)c(C(=O)Nc2ccc(C3CCN(Cc4cccc(-n5ccnc5)c4)CC3)cc2)cc1OC = 82
C[C@H]1O[C@@H](O[C@H]2[C@@H](O)C[C@H](O[C@H]3[C@@H](O)C[C@H](O[C@H]4CC[C@@]5(C)[C@H](CC[C@@H]6[C@@H]5C[C@@H](O)[C@]5(C)[C@@H](C7=CC(=O)OC7)CC[C@]65O)C4)O[C@@H]3C)O[C@@H]2C)C[C@H](O)[C@@H]1O = 68
CC(=O)O[C@H]1C(=O)[C@@]2(C)[C@H]([C@H](OC(=O)c3ccccc3)[C@]3(O)C[C@H](OC(=O)[C@H](O)[C@@H](NC(=O)c4ccccc4)c4ccccc4)C(C)=C1C3(C)C)[C@]1(OC(C)=O)CO[C@@H]1C[C@@H]2O = 66
COc1cc(NC(=O)c2cnc3ccccc3c2)c(C(=O)Nc2ccc(N3CCN(Cc4cccc(-c5cccnc5)c4)CC3)cc2)cc1OC = 60
COc1cc(NC(=O)c2cnc3ccccc3c2)c(C(=O)Nc2ccc(N3CCN(Cc4cccc(-n5ccnc5)c4)CC3)cc2)cc1OC = 74

---

- experiment: Apparent permeability across apical to basolateral side in human Caco-2 cells assessed as drug recovery
- Assay type: ADME, cell-based
- stated_conditions: read-out: Drug recovery
measure: recovery (%)

COc1cc(NC(=O)c2cc(=O)c3ccccc3o2)c(C(=O)Nc2ccc(C3CCN(Cc4cccc(-n5ccnc5)c4)CC3)cc2)cc1OC = 82
COc1cc(NC(=O)c2cnc3ccccc3c2)c(C(=O)Nc2ccc(N3CCN(Cc4cccc(-n5ccnc5)c4)CC3)cc2)cc1OC = 69
CC(=O)O[C@H]1C(=O)[C@@]2(C)[C@H]([C@H](OC(=O)c3ccccc3)[C@]3(O)C[C@H](OC(=O)[C@H](O)[C@@H](NC(=O)c4ccccc4)c4ccccc4)C(C)=C1C3(C)C)[C@]1(OC(C)=O)CO[C@@H]1C[C@@H]2O = 54
COc1cc(NC(=O)c2cnc3ccccc3c2)c(C(=O)Nc2ccc(N3CCN(Cc4cccc(-c5cccnc5)c4)CC3)cc2)cc1OC = 51
COc1cc(NC(=O)c2cnc3ccccc3c2)c(C(=O)Nc2ccc(N3CCN(Cc4ccc5c(c4)OCO5)CC3)cc2)cc1OC = 75
